target: recombinant human renin (Homo sapiens); assay: Primary renin inhibition assay: IC50 in buffer, 384 well MTP (AngI measured by EIA); conditions: human tetradecapeptide (1-14) substrate, incubated at 37° C. for 3 h, AngI quantified by EIA
Structures can show the parent of a compound that is named as a salt.
Property: pIC50; scope: individual compounds
// returns pIC50 (minus log10 of molar concentration), number only

Completed entries (count: 3):
COCCCc1cc(CN(C(=O)C2=C(c3ccc(OCc4cc(-c5c(F)ccc(F)c5Cl)no4)cc3)CCNC2)C2CC2)c(Cl)cn1 = 10.00
COCCCc1ccc(Cl)c(CN(C(=O)C2=C(c3ccc(OCCOc4c(Cl)cc(C)cc4Cl)cc3)C[C@@H]3CN(C(=N)N)C[C@H]2N3)C2CC2)c1 [Example 11, Hydrochloride Salt] = 9.52
COCCc1ccc(Cl)c(CN(C(=O)[C@@H]2[C@@H](c3ccc(OCc4cc(-c5c(F)ccc(F)c5Cl)no4)cc3)C[C@@H]3CC[C@H]2N3)C2CC2)c1 = 9.59

Kindly state the measured pIC50 obtained for COCCCc1ccc(Cl)c(CN(C(=O)C2=C(c3ccc(OCc4cc(-c5c(F)ccc(F)c5Cl)no4)cc3)C[C@@H]3CN(C(C)=O)C[C@H]2N3)C2CC2)c1 with recombinant human renin (Homo sapiens).
9.62

Follow-up entry: Cc1cc(Cl)c(O[C@@H]2CCN(c3ccc([C@H]4CCNC[C@@H]4C(=O)N(Cc4cc(CNC(=O)CC(F)(F)F)ccc4Cl)C4CC4)cn3)C2)c(Cl)c1
9.20

Follow-up entry: COCCc1ccc(Cl)c(CN(C(=O)[C@@H]2[C@@H](c3ccc(OCCOc4c(Cl)cc(C)cc4Cl)cc3)C[C@@H]3CC[C@H]2N3)C2CC2)c1
9.85

Follow-up entry: COCCCc1ccc(Cl)c(CN(C(=O)C2=C(c3ccc(OCCOc4c(Cl)cc(C)cc4Cl)cc3)C[C@@H]3CN(C(=O)NC4CC4)C[C@H]2N3)C2CC2)c1
9.10

Follow-up entry: CNC(=O)CCc1ccc(Cl)c(CN(C(=O)[C@H]2CNCC[C@@H]2c2ccc(OCc3cc(-c4c(F)ccc(F)c4Cl)no3)cc2)C2CC2)c1
10.10

Follow-up entry: O=C(NCc1ccc(Cl)c(CN(C(=O)[C@H]2CNCC[C@@H]2c2ccc(OCc3cc(-c4c(F)ccc(F)c4Cl)no3)cc2)C2CC2)c1)C1CC1
9.74

* * *

biological target: recombinant human renin (Homo sapiens, UniProt P00797); assay: Primary renin inhibition assay: IC50 in buffer, 384 well MTP (AngI measured by EIA); format: biochemical; details: human tetradecapeptide (1-14) substrate, incubated at 37° C. for 3 h, AngI quantified by EIA
endpoint-name: pIC50
// returns pIC50 (minus log10 of molar concentration), number only

pIC50 lookup needed for COCCCc1ccc(Cl)c(CN(C(=O)C2=C(c3ccc(OCCOc4c(Cl)cc(C)cc4Cl)nc3)CCNC2)C2CC2)c1 [Example 18] , thanks.
9.30

* * *

Property: pIC50; scope: individual compounds
Target: recombinant human renin (Homo sapiens, UniProt P00797)
Sequence (P00797 67-406): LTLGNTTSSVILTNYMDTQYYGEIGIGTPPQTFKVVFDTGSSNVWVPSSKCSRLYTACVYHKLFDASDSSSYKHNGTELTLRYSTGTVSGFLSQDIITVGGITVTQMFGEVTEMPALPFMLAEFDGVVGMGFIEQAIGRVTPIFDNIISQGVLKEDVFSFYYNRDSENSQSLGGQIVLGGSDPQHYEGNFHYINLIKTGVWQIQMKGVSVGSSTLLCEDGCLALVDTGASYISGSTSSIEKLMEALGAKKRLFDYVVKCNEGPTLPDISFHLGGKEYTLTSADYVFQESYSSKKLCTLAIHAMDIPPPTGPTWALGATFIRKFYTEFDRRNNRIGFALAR
Experiment: Primary renin inhibition assay: IC50 in buffer, 384 well MTP (AngI measured by EIA)
Conditions: human tetradecapeptide (1-14) substrate, incubated at 37° C. for 3 h, AngI quantified by EIA
// returns pIC50 (minus log10 of molar concentration), number only

COCCCc1ccc(Cl)c(CN(C(=O)C2=C(c3ccc(OCCOc4c(Cl)cc(C)cc4Cl)cc3)C[C@@H]3CNC[C@H]2N3)C2CC2)c1 [Example 4] = 9.70
O=C([C@H]1CNCC[C@@H]1c1ccc(OCc2cc(-c3c(F)ccc(F)c3Cl)no2)cc1)N(Cc1cc(CNCC(F)F)ccc1Cl)C1CC1 [Example 77] = 9.66

Now consider a different compound.
pIC50 lookup needed for COCCCc1cc(CN(C(=O)C2=C(c3ccc(OCCOc4c(Cl)cc(C)cc4Cl)nc3)C[C@@H]3CNC[C@H]2N3)C2CC2)c(Cl)cn1 [Example 42] , thanks.
9.59
